// provenance: patent US20170037425A1

assay-remarks: In vitro H2O hydrolysis and oxygen evolution catalyzed by LEAT protein under light
Type: biochemical
Design: key: +: similar O2 evolution activity as that of YFP; ++: higher O2 evolution activity than that of YFP by at least one order of magnitude; weak: lower activity than that of YFP by at least one order of magnitude
measurement-parameters: water hydrolysis and O2 evolution under light, relative to YFP
endpoint: O2 evolution activity

For this molecule ( phiYFP: yellow fluorescent protein from Phialidium sp. SL-2003 (AY485333), SEQ ID NO: 50 (protein, Aequorea Victoria) MSSGALLFHGKIPYVVEMEGNVDGHTFSIRGKGYGDASVGKVDAQFICTTGDVPVPWSTLVTTLTYGAQCFAKYGPELKDFYKSCMPEGYVQERTITFEGDGVFKTRAEVTFENGSVYNRVKLNGQGFKKDGHVLGKNLEFNFTPHCLYIWGDQANHGLKSAFKIMHEITGSKEDFIVADHTQMNTPIGGGPVHVPEYHHITYHVTLSKDVTDHRDNMSLVETVRAVDCRKTYL ), measured O2 evolution activity is ++
